Species on record: Rattus norvegicus
Assay details: Open TG-GATES - Regimen: Single
Assay type: toxicity, organism-based, Sprague-Dawley
Set-up: regimen Single, gender Male, age 6 weeks
Test context: in vivo, po, 0 mg/kg, 24 h, tissue Plasma, route gavage, dose level Control
# Cl values compiled below
Response body: numeric value in meq/L, unit text excluded.

O=NN(CCCl)C(=O)NC1CCCCC1 : 104.8
CN(C)C(=N)N=C(N)N : 103.8
CC(C)N(CCC(C(N)=O)(c1ccccc1)c1ccccn1)C(C)C (stereo not given) [DISOPYRAMIDE] : 105
CCC1(c2ccccc2)C(=O)NC(=O)NC1=O : 103.2
ClC(Cl)(Cl)Cl [CARBON TETRACHLORIDE] : 103

# input Respond only with Cl recorded for CC1=C(CC(=O)O)c2cc(F)ccc2/C1=C\c1ccc([S+](C)[O-])cc1 (stereo not given)
# output 106.4

# input Respond only with Cl recorded for OCCOCCN1CCN(C(c2ccccc2)c2ccc(Cl)cc2)CC1 (stereo not given) [HYDROXYZINE]
# output 106.6

# input Respond only with Cl recorded for `CC[C@H]1[C@@H]2C[C@H]3[C@@H]4N(C)c5ccccc5[C@]45C[C@@H]([C@@H]2[C@H]5O)N3[C@@H]1O`
# output 102.6

# input Respond only with Cl recorded for `CCc1oc2ccccc2c1C(=O)c1cc(Br)c(O)c(Br)c1`
# output 104.6

# input Respond only with Cl recorded for `O=NN1CCOCC1`
# output 103.3
